Below, each entry is listed with its recorded pIC50.
- protocol-details: Cytotoxicity against human KB-3-1 cells by resazurin reduction assay
- Type: functional, cell-based
pIC50: −log10 of the molar value.
recorded-endpoint: pIC50

1) C=CCOC(=O)C[C@H]1CNC(=O)[C@@H](Cc2ccc(OC)c(Cl)c2)NC(=O)/C=C/C[C@@H]([C@H](C)[C@H]2O[C@@H]2c2ccccc2)OC(=O)[C@H](CC(C)C)OC1=O: 11.08
2) C=CCOC(=O)C[C@@H]1CNC(=O)[C@@H](Cc2ccc(OC)c(Cl)c2)NC(=O)/C=C/C[C@@H]([C@H](C)[C@H]2O[C@@H]2c2ccccc2)OC(=O)[C@H](CC(C)C)OC1=O: 10.02
3) COc1ccc(C[C@H]2NC(=O)/C=C/C[C@@H]([C@H](C)[C@H]3O[C@@H]3c3ccccc3)OC(=O)[C@H](CC(C)C)OC(=O)[C@@H](CCCn3cc(C[C@@H]4NC(=O)[C@@H](Cc5ccccc5)NC(=O)[C@H](CC(=O)O)NC(=O)CNC(=O)[C@H](CCCNC(=N)N)NC4=O)nn3)CNC2=O)cc1Cl: 7.25
4) COc1ccc(C[C@H]2NC(=O)/C=C/C[C@@H]([C@H](C)[C@H]3O[C@@H]3c3ccccc3)OC(=O)[C@H](CC(C)C)OC(=O)[C@H](CCCn3cc(C(C)(C)O)nn3)CNC2=O)cc1Cl: 10.00
5) COc1ccc(C[C@H]2NC(=O)/C=C/C[C@@H]([C@H](C)[C@H]3O[C@@H]3c3ccccc3)OC(=O)[C@H](CC(C)C)OC(=O)[C@H](CCN=[N+]=[N-])CNC2=O)cc1Cl: 10.67

---

- protocol-details: Cytotoxicity against human KB-3-1 cells by resazurin reduction assay
- Format: functional, cell-based
Below, each entry is listed with its recorded IC50.
recorded-endpoint: IC50 (pM)

1. COc1ccc(C[C@H]2NC(=O)/C=C/C[C@@H]([C@H](C)[C@H]3O[C@@H]3c3ccccc3)OC(=O)[C@H](CC(C)C)OC(=O)[C@@H](CCN=[N+]=[N-])CNC2=O)cc1Cl: 54.6
2. C=CCOCCC[C@@H]1CNC(=O)[C@@H](Cc2ccc(OC)c(Cl)c2)NC(=O)/C=C/C[C@@H]([C@H](C)[C@H]2O[C@@H]2c2ccccc2)OC(=O)[C@H](CC(C)C)OC1=O: 149
3. COc1ccc(C[C@H]2NC(=O)/C=C/C[C@@H]([C@H](C)[C@H]3O[C@@H]3c3ccccc3)OC(=O)[C@H](CC(C)C)OC(=O)[C@H](CCCCN=[N+]=[N-])CNC2=O)cc1Cl: 249
4. C=CCOCCC[C@H]1CNC(=O)[C@@H](Cc2ccc(OC)c(Cl)c2)NC(=O)/C=C/C[C@@H]([C@H](C)[C@H]2O[C@@H]2c2ccccc2)OC(=O)[C@H](CC(C)C)OC1=O: 52.7

The values you see were collected from ChEMBL document CHEMBL2321811.
